The reported measurements were obtained from ChEMBL document CHEMBL1201862.

tested on: SN12C; assay: NCI tumour cell line growth inhibition, 48 h
Active and inactive are the calls of the source. No stated cut-off is given here; in the data, active = GI50 up to about 1.1 µM and inactive = higher.
Possible outcomes: label 1 = active, label 0 = inactive

[[record]]
molecule = "CC1=C(C#N)C(=C(C#N)C#N)OC1(C)Cc1ccccc1 (stereo not given)"
class_assignment = "label 0"

[[record]]
molecule = "C=CCN1C[C@@H](C)N([C@@H](c2ccc(C(=O)N(CC)CC)cc2)c2cccc(OC)c2)C[C@@H]1C"
class_assignment = "label 0"

[[record]]
molecule = "NC(=S)c1cccc(C2Nc3ccccc3O2)c1 (stereo not given)"
class_assignment = "label 1"

[[record]]
molecule = "Cc1ccc(S(=O)(=O)Oc2nc3nc4ccccc4nc3nc2OS(=O)(=O)c2ccc(C)cc2)cc1"
class_assignment = "label 0"

[[record]]
molecule = "COc1c(O)c2ccccc2c2cc(O)ccc12"
class_assignment = "label 0"

[[record]]
molecule = "FC(F)(F)c1ccccc1C1SCC2=Nc3ccccc3CN21 (stereo not given)"
class_assignment = "label 0"

[[record]]
molecule = "O=C(c1ccccc1)c1ccc(N2C(=O)/C(=C/c3cccc(Oc4ccccc4)c3)N=C2c2ccccc2)c(N2C(=O)/C(=C/c3cccc(Oc4ccccc4)c3)N=C2c2ccccc2)c1"
class_assignment = "label 0"

[[record]]
molecule = "COc1ccc(-c2oc3c(OC)c(OC)c(OC)c(O)c3c(=O)c2OC)cc1OC"
class_assignment = "label 0"

[[record]]
molecule = "O=C1c2ccccc2NC(=O)C2C1C(c1ccccc1)CC2(O)c1ccccc1 (stereo not given)"
class_assignment = "label 0"

[[record]]
molecule = "C/C(=N\\O)c1ccc(Nc2nc3ccccc3c3occc23)cc1"
class_assignment = "label 0"

[[record]]
molecule = "COc1cc2c(c(OC)c1OC)C(=O)c1c(O)cc(C)c(OC)c1C2=O"
class_assignment = "label 0"

[[record]]
molecule = "CCOC(=O)CO/N=C\\C1=CC(=O)C2CC1C2(C)C (stereo not given)"
class_assignment = "label 0"

[[record]]
molecule = "O=C(Nn1c(-c2ccccc2)nc2ccccc2c1=O)c1ccc(CS)cc1"
class_assignment = "label 0"

[[record]]
molecule = "CC(C)C1(NC(=O)C2CC3c4cccc5[nH]cc(c45)CC3N(C)C2)OC2(O)C3CCCN3C(=O)C(Cc3ccccc3)N2C1=O (stereo not given)"
class_assignment = "label 0"

[[record]]
molecule = "CCC1CN2CCc3cc(OC)c(OC)cc3C2CC1CC1c2cc(OC)c(OC)cc2CCN1C(=O)C1CCCN1 (stereo not given)"
class_assignment = "label 0"


====

system: EKVX; assay: NCI tumour cell line growth inhibition, 48 h
The source made the active and inactive calls. No stated cut-off is given here; in the data, active = GI50 up to about 1.1 µM and inactive = higher.
GI50 values for the molecules below.
REPORTED PROPERTY: GI50

[[record]]
molecule = "Cc1c(/C=N/NC(=S)Nc2ccc([N+](=O)[O-])cc2)c(=O)n(-c2ccccc2)n1C"
target_or_test_system = "EKVX"
reported_property = "GI50"
observed_value = "10.1 µM (inactive)"

[[record]]
molecule = "Cc1cc(S(=O)(=O)Nc2nnc3cc(C(F)(F)F)cc(C)n23)c(S)cc1Cl"
target_or_test_system = "EKVX"
reported_property = "GI50"
observed_value = "> 100 µM (inactive)"

[[record]]
molecule = "CC1CC(N)=Nc2ccccc2N1 (centres undefined)"
target_or_test_system = "EKVX"
reported_property = "GI50"
observed_value = "> 100 µM (inactive)"

[[record]]
molecule = "C=C[C@H]1C=Cc2c(OC)cccc2[C@@H]1COP1(=S)NC(C)C(c2ccccc2)O1 (some centres undefined)"
target_or_test_system = "EKVX"
reported_property = "GI50"
observed_value = "> 100 µM (inactive)"

